Origin of values: PubChem BioAssay AID1963978

// reported viability, T/C for each item listed
- System: 616215-338-R-J1-PDC spheroids with HUVEC/MSC, viability;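 note: spheroids exposed to agents for seven days before the viability read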
- Experimental Protocol: Anticancer human tumor 616215-338-R-J1-PDC patient-derived colon adenocarcinoma cell line growth inhibition [PI3K]
- Assay Setup: second compound 0.0316 µM; first compound 0.03 µM; stronger effect = lower value
Your answer should be a plain number; it is taken to be in %.

Use these answered entries as a reference point.
Compound	Quantity	Assay Result
Cn1cnc2c(F)c(Nc3ccc(Br)cc3Cl)c(C(=O)NOCCO)cc21 + COc1c(OCCCN2CCOCC2)ccc2c3n(c(=NC(=O)c4cnc(N)nc4)nc12)CCN3	viability, T/C	94.8
Cn1cnc2c(F)c(Nc3ccc(Br)cc3Cl)c(C(=O)NOCCO)cc21 + Cc1nc(NC(=O)N2CCCC2C(N)=O)sc1-c1ccnc(C(C)(C)C(F)(F)F)c1	viability, T/C	94.8
Cn1cnc2c(F)c(Nc3ccc(Br)cc3Cl)c(C(=O)NOCCO)cc21 + CC(Nc1ncnc2nc[nH]c12)c1cc2cccc(Cl)c2c(=O)n1-c1ccccc1	viability, T/C	100

Q. I would be grateful if you could share the reported viability, T/C for Cn1cnc2c(F)c(Nc3ccc(Br)cc3Cl)c(C(=O)NOCCO)cc21 + CC(Nc1ccc2c(c1)OCCn1cc(N3C(=O)OCC3C(F)F)nc1-2)C(N)=O .
A. 110
